Reference for the values: patent US10815252B2

// values below are reported IC50
- method summary: Pyrogallol auto-oxidation method, free radical scavenging
- Format: biochemical
- measurement context: Tris-HCl pH 8.20, 25° C., 322 nm, read-out: IC50 to scavenge O2^−. free radical
Give the number; µM is assumed, so skip it.

compound	IC50 [µM]
O=c1cc(-c2ccc(O)c(-c3c(O)cc(O)c4c(=O)cc(-c5ccc(O)cc5)oc34)c2)oc2cc(O)cc(O)c12 [Ame, amentoflavone]	23.3

# lookup: IC50 of CS(C)=[O+][Cu-4]1([O+]=S(C)C)[O+]=C2C=C(c3ccc(O)cc3)Oc3c2c(cc(O)c3-c2cc(-c3cc(=O)c4c(O)cc(O)cc4o3)ccc2O)[OH+]1 [Ame-Cu complex]
4.57
